Test system: MDR1 (P-gp)
assaySummary: Bidirectional permeability study on MDCK-MDR1 cell line
Type: in vitro ADME
conditionParameters: dog, pH 7.4; MDCK-MDR1, 1 μM, 2 hours
Method: MDCK-MDR1 cells were purchased from Netherlands Cancer Institute, and cells between 10 and 20 generations were used. […] 4) Calculation of resistance value: measured resistance value (ohms)×film area (cm^2)=TEER value (ohm cm^2), and if the TEER value was less than 42 ohms cm^2, the well could not be used for a penetration experiment. […] 3) A transfer rate of the compound from a top end to a base end was measured. […] 4) A transfer rate of the compound from the base end to the top end was measured. […]
Listed next: entries and their corresponding Papp A→B at 2 h, 1 μM.
Numeric answer plus unit only.

[
  {
    "compound": "C[C@H]1Nc2nc3c(cnn3cc2F)C(=O)N[C@H]2C[C@H](C2)Oc2ncc(F)cc21 [Example 3]",
    "Papp A→B at 2 h, 1 μM": "11.1 ×10⁻⁶ cm/s"
  }
]

Challenge: Please give the measured Papp A→B at 2 h, 1 μM for this compound: C[C@H]1Nc2ccn3ncc(c3n2)C(=O)N[C@H]2C[C@H](C2)Oc2ncc(F)cc21 [Positive control 2, reference compound]
Response given: 3.31 ×10⁻⁶ cm/s

---

assaySummary: In-vivo pharmacokinetic study on SD rats, intravenous and oral
conditionParameters: rat, plasma, IV @ 1 mg/kg, read-out: Area under curve AUC(0-t)
Each item that follows carries a reported AUC(0-t).
Give the number; ng·h/mL is assumed, so skip it.

[
  {
    "compound": "C[C@H]1Nc2nc3c(cnn3cc2F)C(=O)N[C@H]2C[C@H](C2)Oc2ncc(F)cc21 [Example 3]",
    "quantitativeResult": 1480
  }
]

Challenge: Any idea what AUC(0-t) was measured for C[C@H]1Nc2ccn3ncc(c3n2)C(=O)N[C@H]2C[C@H](C2)Oc2ncc(F)cc21 [Positive control 2, reference compound] ?
Response given: 1010

Challenge: I would be grateful if you could share the reported AUC(0-t) for O=C1N[C@H]2C[C@H](C2)Oc2ncc(F)cc2[C@H]2CCCN2c2ccn3ncc1c3n2 (stereo in doubt) [Positive control 1, reference compound] .
Response given: 605

Challenge: What value of measured AUC(0-t) is listed for O=C1N[C@H]2C[C@H](C2)Oc2ncc(F)cc2[C@H]2CCCN2c2nc3c1cnn3cc2F [Example 2] ?
Response given: 422

---

half-life at 1 μM values, listed per item
assaySummary: Stability test in liver microsomes, human
Assay type: in vitro ADME
conditionParameters: 1 μM, 0.5 mg/mL
Kindly answer with a numeric value in h, unit omitted.

Challenge: Tell me the measured half-life at 1 μM of C[C@H]1Nc2ccn3ncc(c3n2)C(=O)N[C@H]2C[C@H](C2)Oc2ncc(F)cc21 [Positive control 2, reference compound] , please.
Response given: 1.41

Challenge: Fill in the blank: the reported half-life at 1 μM of C[C@H]1Nc2nc3c(cnn3cc2F)C(=O)N[C@H]2C[C@H](C2)Oc2ncc(F)cc21 is ____.
Response given: 2.13

Challenge: // returns reported half-life at 1 μM for input O=C1N[C@H]2C[C@H](C2)Oc2ncc(F)cc2[C@H]2CCCN2c2ccn3ncc1c3n2 (stereo in doubt) [Positive control 1, reference compound]
Response given: 0.25

---

assaySummary: In-vivo pharmacokinetic study on SD rats, intravenous and oral
conditionParameters: rat, plasma, PO @ 5 mg/kg, read-out: Concentration to peak Cmax
recordedMetric: Cmax (nM)
Reply with just the number (in nM).

[
  {
    "molecule": "O=C1N[C@H]2C[C@H](C2)Oc2ncc(F)cc2[C@H]2CCCN2c2ccn3ncc1c3n2 (stereo in doubt) [Positive control 1, reference compound]",
    "measureUnit": "nM",
    "quantitativeResult": 932
  },
  {
    "molecule": "C[C@H]1Nc2nc3c(cnn3cc2F)C(=O)N[C@H]2C[C@H](C2)Oc2ncc(F)cc21 [Example 3]",
    "measureUnit": "nM",
    "quantitativeResult": 1300
  },
  {
    "molecule": "O=C1N[C@H]2C[C@H](C2)Oc2ncc(F)cc2[C@H]2CCCN2c2nc3c1cnn3cc2F [Example 2]",
    "measureUnit": "nM",
    "quantitativeResult": 527
  }
]

Consider the record given below.
Challenge: Query: Cmax; subject: C[C@H]1Nc2ccn3ncc(c3n2)C(=O)N[C@H]2C[C@H](C2)Oc2ncc(F)cc21 [Positive control 2, reference compound]
Response given: 633
